B1: HDAC6 (parent)
chain: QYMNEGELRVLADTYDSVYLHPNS

Variants of: B1
Procedure text: protein stability index of a GFP-peptide fusion (GPS, HEK-293T) (PSI 1-6); higher = more stable;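 also: lentivirally expressed fusions sorted by FACS into six bins by GFP to DsRed ratio, PSI derived from sequencing read proportions per bin multiplied by bin number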
Test conditions: c terminus: a fixed tail appended
If the reported protein stability index equals or exceeds 2, assign label 1. If not, assign label 0.

Request: Confirm if protein stability index reported for the variant N4G is 2 or above.
Response: label 0

Request: Follow-up item: N4V
Response: label 0

Request: Follow-up item: N4L
Response: label 0

Request: Follow-up item: L8R
Response: label 1

Request: Follow-up item: D13F
Response: label 1

Request: Follow-up item: M3Q
Response: label 1

Request: Follow-up item: P22Y
Response: label 0

Request: Follow-up item: M3C
Response: label 1

Request: Follow-up item: M3L
Response: label 1

Request: Follow-up item: R9W
Response: label 0

Request: Follow-up item: Y15F
Response: label 0

Request: Follow-up item: E5D
Response: label 0

Request: Follow-up item: S24T
Response: label 0

Request: Follow-up item: T14R
Response: label 1

Request: Follow-up item: N23Q
Response: label 0

Request: Follow-up item: H21D
Response: label 0

Request: Follow-up item: L20K
Response: label 0

Request: Follow-up item: S17E
Response: label 1

Request: Follow-up item: D13S
Response: label 0

Request: Follow-up item: G6K
Response: label 1

Request: Follow-up item: S24M
Response: label 0

Request: Follow-up item: N23A
Response: label 0

Request: Follow-up item: Y15D
Response: label 1

Request: Follow-up item: A12G
Response: label 0

Request: Follow-up item: D13I
Response: label 1

Request: Follow-up item: L11V
Response: label 1

Request: Follow-up item: E5N
Response: label 1

Request: Follow-up item: S17K
Response: label 0

Request: Follow-up item: D13Q
Response: label 0

Request: Follow-up item: H21I
Response: label 1

Request: Follow-up item: P22Q
Response: label 0

Request: Follow-up item: T14C
Response: label 1

Request: Follow-up item: G6N
Response: label 1

Request: Follow-up item: T14Q
Response: label 1

Request: Follow-up item: S24C
Response: label 0

Request: Follow-up item: Y15M
Response: label 1

Request: Follow-up item: V10Q
Response: label 1

Request: Follow-up item: T14A
Response: label 1

Request: Follow-up item: V18G
Response: label 1

Request: Follow-up item: L20W
Response: label 0

Request: Follow-up item: R9I
Response: label 1
